Assignment: determine reported Dead Intensity (dead gate intensity divided by live gate intensity) for the given compounds.
tested on: membrane compromised bovine sperm stained with Hoechst 33342; test: Dead quenching: dead gate intensity divided by live gate intensity, flow cytometry of stained bovine sperm; assay type: cell-based; conditions: Ex 5; dye 62.5 μM; Hoechst 16 μL/2 mL
Give bare numbers, in %.

compound="O=S1(=O)OC(c2ccc(O)cc2)(c2ccc(O)cc2)c2ccccc21 [Phenol Red, phenolsulfonphthalein]" target_entity="membrane compromised bovine sperm stained with Hoechst 33342" val=80
compound="O=S(=O)([O-])c1ccc(N=Nc2c(O)ccc3cc(S(=O)(=O)[O-])ccc23)cc1.[Na+].[Na+] [Yellow 6]" target_entity="membrane compromised bovine sperm stained with Hoechst 33342" val=52
compound="O=C([O-])C1=NN(c2ccc(S(=O)(=O)[O-])cc2)C(=O)/C1=N/Nc1ccc(S(=O)(=O)[O-])cc1.[Na+].[Na+].[Na+] [Yellow 5]" target_entity="membrane compromised bovine sperm stained with Hoechst 33342" val=70

# next compound below
**Q:** Determine its reported Dead Intensity (dead gate intensity divided by live gate intensity): COc1cc(S(=O)(=O)O)c(C)cc1N=Nc1c(O)ccc2cc(S(=O)(=O)O)ccc12 [Red 40, reference compound]
**A:** 50
